# System: SK-MEL-5 melanoma
# testProtocol: NCI-60 one-dose screen, 48 h
# runParameters: 10 µM unless noted
This is part of a sample that, as a whole, favours compounds with a hit. Of some 83,000 tested, about 20% had one in any assay. The source made the active and inactive calls. How the source made its calls: active means growth percent below 10; inactive means the rest.
Outcome codes: yes = active, no = inactive

Oc1c(CN2CCC(N3CCCCC3)CC2)cc(Cc2cc(CN3CCC(N4CCCCC4)CC3)c(O)c3ncccc23)c2cccnc12 ... no
CCCCNC(=O)Oc1ccc(/C(=C(/C)Cc2ccc(OC)cc2)c2ccc(OCCN3CCCCC3)cc2)cc1 ... no
Nc1[nH]n2cc(-c3ccc(F)cc3)nc2c1N=Nc1ccc(S(N)(=O)=O)cc1 ... no
CN(C)c1ccc(/C=C(\C#N)c2cc3ccccc3[nH]2)cc1 ... no
Oc1c(CN2CCOCC2)cc(COCc2ccccc2)c2cccnc12 ... yes
C#CCn1cnc2cnc(Nc3cccc(NC(=O)C=C)c3)nc21 ... no
COc1ccc(C#Cc2ccc(=O)oc2-c2cc(OC)c(OC)c(OC)c2)cc1O ... no
O=C1/C(=C/c2ccccc2F)CN(C(=O)C(Cl)Cl)C/C1=C\c1ccccc1F ... yes
Cc1ccc(C(=O)c2ccc(CC(=O)NN3C(=O)c4ccccc4C3=O)n2C)cc1 ... no
COc1ccccc1N(C(C)=O)C1=C(Cl)C(=O)c2ccccc2C1=O ... yes
CN(CCC(=O)c1ccccc1)CCC(=O)c1ccccc1 ... no
Cc1ccc(C(=O)Nc2cccc(C#Cc3cccc4[nH]nc(N)c34)c2)cc1C(F)(F)F ... no
Cc1nn(-c2cc(NC3CCC(O)CC3)c3c(=O)[nH]c(CCC(F)(F)F)cc3c2)c2c1C(=O)CC(C)(C)C2 (stereo not given) ... no
O=C(Nc1ncc(Cc2cc(C(F)(F)F)ccc2Cl)s1)c1cccs1 ... no
C#COc1cccc(Nc2ncnc3cc(NC(=O)[C@@H](C)Cl)ccc23)c1 ... no
COc1cccc(NCc2nnc(Nc3ccc(Cl)cc3)c3ccccc23)c1 ... yes
C=C1CC[C@@H]2C(C)(C)[C@@H](O)CC[C@@]2(C)[C@@H]1COc1ccc2ccc(=O)oc2c1 ... no
C[C@]1(O)CC(=O)[C@]2(O)C3=C(C=C[C@]2(O)C1)C(=O)c1c(O)cccc1C3=O ... yes
Cc1ccc2c(-n3nc(C#N)c(C#N)c3N)cc(=O)[nH]c2c1 ... no
Cc1nnc(-c2ccc3c(c2)nc(/C=C/c2ccccc2)n3C2CCCCC2)o1 ... no

---

# Tested on: PC-3 prostate
# testProtocol: NCI-60 one-dose screen, 48 h
# runParameters: 10 µM unless noted
About 83,000 compounds went through this panel and 20% of them were active in at least one assay; those are over-represented in the sample as a whole. Activity calls are given as the source filed them. Rule for the calls: active = growth percent below 10; inactive = the rest.
Outcomes: yes = active, no = inactive

C#CC#CC#CC#CC#CC#CC#CC#CCC1OC[C@H](COC(=O)O[C@@H](C(=O)O[C@H]2C[C@@]3(O)[C@@H](OC(=O)c4ccccc4)[C@@H]4[C@]5(OC(C)=O)CO[C@@H]5C[C@H](O)[C@@]4(C)C(=O)[C@H](OC(C)=O)C(=C2C)C3(C)C)[C@@H](NC(=O)c2ccccc2)c2ccccc2)O1 (some centres not stated) ... no
Cc1ccc2nc(NC(=O)CSc3nc(-c4ccccc4)c(C#N)c4nnnn34)sc2c1 ... no
COc1ccc(-c2nc(/C=C3\C(=O)N(C)c4ccccc43)c3ccccn23)cc1 ... no
CC/C=C\CCC/C=C1/C(=O)C=C[C@@H]1C/C=C\CCCC(=O)OC ... no
COc1cc(C2C(C(=O)OCc3ccccc3)=C(C)NC(C)=C2C(=O)OCc2ccccc2)cc(OC)c1OC ... yes
Cc1ccc(/C=C/C(=O)Nc2ncc(Cc3ccc(F)cc3)s2)o1 ... no
Cc1ccc(/C=C/C(=O)c2ccc(-n3cc(CN4CCN(c5cc6c(cc5F)c(=O)c(C(=O)O)cn6C5CC5)CC4)nn3)cc2)cc1 ... no

---

# System: SNB-75 CNS
# testProtocol: NCI-60 one-dose screen, 48 h (100 = growth as untreated, 0 = no growth, -100 = all killed)
# runParameters: 10 µM unless noted
Compounds without any hit were thinned out: in the full panel of roughly 83,000, 20% have a hit.
Listed compounds paired with reported growth
readoutLabel: growth (%)

C[C@H](CCCC(=O)NCC#CCN1CCN(C)CC1)[C@H]1CC[C@H]2[C@@H]3CC[C@@H]4CC(=O)CC[C@]4(C)[C@H]3CC[C@]12C ... 89.8
CCN1C(=O)N(CC)C2C1NN=c1s/c(=C3\C(=O)N(CC(C)C)c4ccccc43)c(=O)n12 (centres undefined) ... 14.9
O=C(CCCCCNC(=O)c1cc(=O)c(O)co1)Nc1ccccc1 ... 82.7
CCCCC#Cc1c(I)n(C)c(=O)[nH]c1=O ... 82.6
CC1(C)N=C(N)N=C(N)N1c1cccc(CCc2ccccc2)c1 ... 63
CC1(C)N=C(N)N=C(N)N1c1ccc(CCCCc2ccccc2)c(Cl)c1 ... 18.3
O=C(c1c[nH]c2ccccc12)c1n[nH]c(=S)n1-c1cccc(Br)c1 ... 83.2
O=C(/C=C/c1cccc(Cl)c1Cl)Nc1ncc(Cc2ccccc2Cl)s1 ... 36.4
CN(C)CCN1C(=O)c2cccc3c(/C=C/CN4C(=O)c5cccc6cccc(c56)C4=O)ccc(c23)C1=O ... 90.6

---

# System: SK-MEL-2 melanoma
# testProtocol: NCI-60 one-dose screen, 48 h
# runParameters: 10 µM unless noted
The panel holds about 83,000 compounds, 20% with a hit somewhere; the sample as a whole holds those more often. The source made the active and inactive calls. How the source made its calls: active means growth percent below 10; inactive means the rest.
Outcome codes: y for active, n for inactive

COC(=O)CC[C@@H]1O[C@@H](c2ccc(F)cc2)[C@@H](O)[C@H]1O ... n
C=C(C)[C@@H]1CC[C@]2(C)[C@H](CC=C3[C@@H]4CC(C)(C)CC[C@]4(CO)CC[C@]32C)[C@@]1(C)CCCN ... y
C=C1C(=O)O[C@H]2[C@H]1CC/C(COC(=O)NCc1ccc(Cn3c(=O)sn(-c4ccc(C#N)cc4)c3=O)cc1)=C\CC[C@@]1(C)O[C@@H]21 ... n
O=C(NNC(=O)c1ccc(NC(=O)c2ccccn2)cc1)Nc1ccc2ccccc2c1 ... n
COc1cc(-c2nc3cc(Cl)c(Cl)cc3[nH]2)ccc1OCC(=O)N=Nc1c(O)[nH]c2ccc(Cl)cc12 ... y
COc1cc(C(=O)n2nc(N3CCOCC3)c3cc(-n4cccc4)ccc32)cc(OC)c1OC ... n
CCCCCCCC/C=C\CCCCCCCCOc1ccc(CC(=O)NCC[N+]2(C)CCOCC2)cc1 ... n
Cc1c(CN)cc(-c2ccc(Cl)cc2)n1-c1ccccc1 ... n
CN1CCN(C(=S)SCCCCOc2cc(=O)oc3ccccc23)CC1 ... n
CCN1CCN(CCNc2nccc(-c3c(-c4ccc(F)c(OC)c4)nc4sccn34)n2)S1(=O)=O ... n
C[C@H](C(=O)N(CCc1ccc(Cl)c(Cl)c1)Cc1cncs1)[C@@H]1CC[C@H](C[C@H](C)n2cc(CN3CCC(c4ccc(Cl)cc4)CC3)nn2)O1 ... n
CCOC(=O)c1cc(C(=O)c2cc(OC)c(OC)c(OC)c2)n2ccccc12 ... n
CSc1nn2c(-c3ccc4ccccc4c3)ccnc2c1C#N ... y
O=C(N=Nc1c(O)[nH]c2ccccc12)Nc1ccc(F)cc1 ... n
C=C1C(=O)O[C@H]2[C@H]1CC/C(CNC(=O)c1c[nH]c3ccc(F)cc13)=C\CC[C@@]1(C)O[C@@H]21 ... n
COC(=O)c1c2c(n3ccccc13)C(=O)c1ccccc1C2=O ... n
C#CCO[C@H]1CC(CC#C)(CC#C)C(=O)[C@@H]2[C@H]1[C@H]1C[C@@H]3[C@@]4(C)CCC[C@@](C)(C(=O)OC)[C@@H]4CC[C@@]23C=C1C(C)C ... n
Cn1cc(-c2nn3cc(-c4cccs4)nc3s2)c2cc(F)ccc21 ... n
N#C/C(=C\c1ccc([N+](=O)[O-])cc1)n1nnc2cc(F)c(F)cc21 ... n
CCOC(=O)c1cnc2c(N=Nc3ccc(OC)cc3)c(N)nn2c1N ... n
C=C1C(=O)O[C@H]2[C@H]1CC/C(COC(=O)CSCSCC(=O)OC/C1=C/CC[C@@]3(C)O[C@H]3[C@H]3OC(=O)C(=C)[C@@H]3CC1)=C\CC[C@@]1(C)O[C@@H]21 ... n
COc1ccc(/C=C/c2c(C(=O)/C=C/c3ccccc3)c(C)nc3ccccc23)cc1 ... n
c1ccc2c(c1)CCCc1nnc3nc4ccccc4n3c1-2 ... n
CN1CCN(c2ccc(NC(=O)c3cncnc3Nc3ccc(OCc4cccc(F)c4)c(Cl)c3)cc2)CC1 ... n
COc1ccc(/C(C)=C(/c2ccc(OCCCN(C)C)cc2)c2ccc(OC(=O)c3ccccc3)cc2)cc1 ... n
O=C(Nc1ccccc1N1CCCC1=O)c1oc2ccc(F)cc2c1-c1cnn(-c2ccccc2)c1 ... n
O=S(=O)(NCCNc1nccc(-c2c(-c3ccc(F)c(O)c3)nc3sccn23)n1)c1ccc(F)cc1 ... n
CCN(CC)c1ccc(CNc2cc(C)nc3ccccc23)cc1 ... n
COc1ccc(C2CC(c3cc(OC)c(OC)c(OC)c3)=NO2)cc1OCCCCOc1cc2c(cc1OC)C(=O)N1CCC[C@H]1C=N2 (some centres not stated) ... y
COc1ccc(Nc2ncccc2/C=C/C(=O)c2cc(OC)c(OC)c(OC)c2)cc1 ... y
COc1ccc(C(=O)Cn2c(C(=O)c3ccc(Cl)cc3)nc3ccccc32)cc1 ... n
CN1CCN(c2ccc3nc4c(nc3c2C(F)(F)F)C(=O)c2ncccc2C4=O)CC1 ... y
Fc1ccc2[nH]cc(-c3nc(-c4c[nH]c5ccncc45)cs3)c2c1 ... y
O=C(CCCCCNC(=O)c1cc(=O)c(O)co1)Nc1ccccc1 ... n
O=C(Cc1ccc(NC(=O)c2cccc(Cl)c2)cc1)NCc1ccccc1 ... n
NC(=O)c1cnc(Nc2cccc(N)c2)nc1NCCCNC(=O)C1CCC1 ... n
Cc1c(Cl)cccc1C(=O)Nc1nc2c(s1)CN(C(=O)c1ccc(C(F)(F)F)cc1)CC2 ... n
